Test system NCI-H460 lung, GI50 listed for each of the molecules.

// below: answered molecules
O=C(c1ccc2ccccc2c1)c1c(C(F)(F)F)n([O-])c2ccc(Cl)cc2[n+]1=O :: 1750 nM
C[C@H](Cn1ncnn1)Nc1ncc2cc(Oc3ccc(F)cc3F)c(=O)n(C)c2n1 :: > 25000 nM
Cn1c([N+](=O)[O-])cnc1/C=C1\Oc2cc(Cl)ccc2C1=O :: 297 nM
C[C@H]1[C@H](C)CC[C@]2(C(=O)NCCNCCN)CC[C@]3(C)C(=CC[C@@H]4[C@@]5(C)CCC(=O)C(C)(C)[C@@H]5CC[C@]43C)[C@H]12 :: 1770 nM

Identify measured GI50 obtained with NCI-H460 lung for CCCCCCCCCCCCCCCCCCNC(=O)[C@H]1CSC(c2cccs2)N1 (stereo not given in full) .
754 nM
